Here the recorded koff is given for each entry.
Target: T1, human LAP-TGFB1 Fc fusion (human)
T1 construct: also called human LAP-TGFβ1-Fc; human LAP-TGFβ-Fc isoform 1
T1 sequence (chain, as listed by the source limits assumed): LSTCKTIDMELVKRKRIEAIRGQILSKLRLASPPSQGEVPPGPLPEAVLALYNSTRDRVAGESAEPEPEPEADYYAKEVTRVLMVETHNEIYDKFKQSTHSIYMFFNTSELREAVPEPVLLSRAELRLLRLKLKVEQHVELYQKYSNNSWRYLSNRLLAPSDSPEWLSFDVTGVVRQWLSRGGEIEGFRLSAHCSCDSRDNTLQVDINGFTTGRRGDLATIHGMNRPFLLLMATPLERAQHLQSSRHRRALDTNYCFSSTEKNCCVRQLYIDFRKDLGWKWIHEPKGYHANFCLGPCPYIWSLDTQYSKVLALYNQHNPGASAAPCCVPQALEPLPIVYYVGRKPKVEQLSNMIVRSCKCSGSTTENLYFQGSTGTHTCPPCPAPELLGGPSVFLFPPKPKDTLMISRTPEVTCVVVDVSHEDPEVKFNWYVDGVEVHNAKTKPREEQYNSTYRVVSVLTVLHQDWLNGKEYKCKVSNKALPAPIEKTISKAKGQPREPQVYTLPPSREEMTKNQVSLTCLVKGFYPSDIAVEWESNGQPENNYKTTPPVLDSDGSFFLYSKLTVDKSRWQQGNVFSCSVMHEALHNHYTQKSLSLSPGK
Experiment: SPR pH 7.4, antigen-Fc captured, Fab analyte
Numeric only. Scale: s⁻¹

Here are 3 binders together with their reported answers.
binder | unitName | koff
59BLH (Fab, V domains shown, also called 11BLM Fab) VH: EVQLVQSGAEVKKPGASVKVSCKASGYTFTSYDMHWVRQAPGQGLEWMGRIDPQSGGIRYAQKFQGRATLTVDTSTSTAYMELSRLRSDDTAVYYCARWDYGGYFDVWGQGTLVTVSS VL: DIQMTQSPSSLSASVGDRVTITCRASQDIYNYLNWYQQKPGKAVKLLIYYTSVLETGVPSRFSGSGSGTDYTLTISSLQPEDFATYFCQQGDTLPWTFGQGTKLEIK | s⁻¹ | 0.00047
62BLH (Fab, V domains shown, also called 14BLM Fab) VH: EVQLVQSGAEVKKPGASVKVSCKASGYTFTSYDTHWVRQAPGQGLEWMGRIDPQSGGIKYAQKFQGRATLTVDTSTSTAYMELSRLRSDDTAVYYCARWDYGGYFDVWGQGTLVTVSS VL: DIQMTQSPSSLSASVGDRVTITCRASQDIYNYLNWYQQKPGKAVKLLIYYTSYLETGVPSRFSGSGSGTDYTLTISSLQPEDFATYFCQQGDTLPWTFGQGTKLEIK | s⁻¹ | 0.00124
57BLH (Fab, V domains shown, also called 09BLM Fab) VH: EVQLVQSGAEVKKPGASVKVSCKASGYTFTSYDMHWVRQAPGQGLEWMGRIDPISGGIKYAQKFQGRATLTVDTSTSTAYMELSRLRSDDTAVYYCARWDYGGYFDVWGQGTLVTVSS VL: DIQMTQSPSSLSASVGDRVTITCRASQDIFNYLNWYQQKPGKAVKLLIYYTSHLETGVPSRFSGSGSGTDYTLTISSLQPEDFATYFCQQGDTLPWTFGQGTKLEIK | s⁻¹ | 0.00049

# evaluate next
Entry 20E6 Fab (80BGJ/85BIT) (Fab, V domains shown, also called 20E6 (80BGJ); 20E6 (85BIT)) VH: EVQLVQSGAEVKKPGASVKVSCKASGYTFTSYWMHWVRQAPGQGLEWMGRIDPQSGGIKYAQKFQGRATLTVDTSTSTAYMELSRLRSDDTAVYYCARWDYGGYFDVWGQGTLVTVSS VL: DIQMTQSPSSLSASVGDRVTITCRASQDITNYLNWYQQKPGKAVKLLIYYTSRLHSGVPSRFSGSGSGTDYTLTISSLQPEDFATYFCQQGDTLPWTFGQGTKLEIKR — recorded koff = 0.0769

Value source: patent US20230272056A1
